Below: a set of entries, each annotated with reported PBM binding z-score.
system: RARa:RXR (NR concentration 270 nM, RXRa partner concentration 90 nM); assay: PBM binding z-score (relative to random genomic background probes); higher = stronger binding; sequences stand for … in GC…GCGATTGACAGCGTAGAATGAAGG
Endpoint Name: PBM binding z-score

>>> observed_measurement("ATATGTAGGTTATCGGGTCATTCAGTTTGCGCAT")
3.54
>>> observed_measurement("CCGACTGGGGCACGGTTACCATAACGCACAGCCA")
-0.139
>>> observed_measurement("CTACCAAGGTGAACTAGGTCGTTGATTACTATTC")
1.61
>>> observed_measurement("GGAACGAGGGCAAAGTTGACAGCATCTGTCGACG")
2.66
>>> observed_measurement("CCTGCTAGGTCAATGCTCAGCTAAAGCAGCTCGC")
1.19
>>> observed_measurement("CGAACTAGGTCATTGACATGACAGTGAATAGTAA")
2.28
>>> observed_measurement("CTAACTAGGTCAGAACAGGACAGTGAAGGATGAT")
0.805
>>> observed_measurement("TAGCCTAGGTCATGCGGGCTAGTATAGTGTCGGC")
1.97
>>> observed_measurement("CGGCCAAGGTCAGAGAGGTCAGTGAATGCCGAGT")
5.43
>>> observed_measurement("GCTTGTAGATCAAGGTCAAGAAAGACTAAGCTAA")
3.08
>>> observed_measurement("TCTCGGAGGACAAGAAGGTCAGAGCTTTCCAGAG")
1.69
>>> observed_measurement("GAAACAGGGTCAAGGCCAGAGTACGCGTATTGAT")
4.58
>>> observed_measurement("CATCGGAGGACAACAGGAGGTCAGAGCTGCCAGA")
2.69
>>> observed_measurement("GCTATTAGTTGAAAGGTCAACCGAATGATTCTCG")
6.55
>>> observed_measurement("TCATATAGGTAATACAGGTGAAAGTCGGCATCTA")
1.34
>>> observed_measurement("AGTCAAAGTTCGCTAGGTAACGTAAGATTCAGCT")
0.661

----------
Below: a set of entries, each annotated with reported PBM binding z-score.
test system: THRa homodimer (NR concentration 90 nM); assay: PBM binding z-score (relative to random genomic background probes); higher = stronger binding; sequences stand for … in GC…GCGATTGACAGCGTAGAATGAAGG
Endpoint Name: PBM binding z-score

>>> observed_measurement("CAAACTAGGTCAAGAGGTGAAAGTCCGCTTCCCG")
1.67
>>> observed_measurement("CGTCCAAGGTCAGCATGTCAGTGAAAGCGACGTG")
2.02
>>> observed_measurement("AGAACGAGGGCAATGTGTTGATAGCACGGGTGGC")
-0.000904
>>> observed_measurement("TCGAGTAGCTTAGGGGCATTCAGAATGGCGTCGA")
-0.487
>>> observed_measurement("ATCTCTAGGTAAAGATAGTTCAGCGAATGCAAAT")
-0.0177
>>> observed_measurement("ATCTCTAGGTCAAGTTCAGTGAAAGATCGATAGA")
2.16
>>> observed_measurement("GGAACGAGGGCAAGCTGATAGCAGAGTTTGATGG")
-0.593
>>> observed_measurement("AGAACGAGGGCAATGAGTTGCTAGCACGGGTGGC")
-0.316
>>> observed_measurement("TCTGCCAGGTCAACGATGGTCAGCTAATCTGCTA")
1.7
>>> observed_measurement("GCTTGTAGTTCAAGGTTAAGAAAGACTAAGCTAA")
0.091
>>> observed_measurement("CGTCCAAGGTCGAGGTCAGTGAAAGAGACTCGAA")
2.42
>>> observed_measurement("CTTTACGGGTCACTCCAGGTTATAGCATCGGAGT")
0.775
>>> observed_measurement("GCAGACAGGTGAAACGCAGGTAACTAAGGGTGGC")
-0.719
>>> observed_measurement("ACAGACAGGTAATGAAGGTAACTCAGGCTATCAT")
0.263
>>> observed_measurement("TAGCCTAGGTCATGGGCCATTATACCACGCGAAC")
1.37
>>> observed_measurement("AGAACGAGGGCACGCTGAGTTGATAGCGGAGTAG")
0.248
>>> observed_measurement("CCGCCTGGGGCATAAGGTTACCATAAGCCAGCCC")
1.33
>>> observed_measurement("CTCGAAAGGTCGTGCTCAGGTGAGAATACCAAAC")
1.14
>>> observed_measurement("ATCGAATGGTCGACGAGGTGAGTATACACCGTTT")
0.408
